Target: T1, human LAG-3 (His tag) (human, UniProt P18627 23-450, limits assumed)
T1 construct: also called LAG-3-His antigen; not shown: His tag
T1 sequence (looked up): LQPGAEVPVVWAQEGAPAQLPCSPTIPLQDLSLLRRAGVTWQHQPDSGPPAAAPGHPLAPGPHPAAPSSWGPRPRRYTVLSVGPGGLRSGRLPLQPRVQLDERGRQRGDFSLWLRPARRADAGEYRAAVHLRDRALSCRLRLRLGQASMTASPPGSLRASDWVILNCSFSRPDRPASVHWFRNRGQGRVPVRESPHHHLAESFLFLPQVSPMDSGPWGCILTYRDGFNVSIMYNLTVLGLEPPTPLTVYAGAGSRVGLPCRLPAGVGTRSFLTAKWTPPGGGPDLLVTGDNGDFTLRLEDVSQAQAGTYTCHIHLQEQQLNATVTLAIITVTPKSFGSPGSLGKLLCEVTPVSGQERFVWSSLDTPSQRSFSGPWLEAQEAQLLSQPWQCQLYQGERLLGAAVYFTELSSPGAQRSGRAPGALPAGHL
Assay: BLI (ForteBio Octet), LAG-3 His on Ni-NTA sensor
Experimental Endpoint: koff (s⁻¹)
Note: unit s⁻¹ is implicit; provide only the numeric part.

Lab note: measured koff of humanized antibody AB12T3 (antibody, human IgG4, kappa, V domains shown) VH: DVQLQESGPGLVKPSQTLSLTCTVTGYSITSFYSWHWIRQHPGKGLEWMGCIQYSGDTDSNPSLKSRITITRDTSENQLSLKLSSVTAADTAVYYCARSPYDSDPYYVMDYWGQGTLVTVSS VL: DIVMSQSPDSLAVSLGERATITCKSSQSLLYSGNQKNYLAWYQQKPGQPPTLLIYWASTRDSGVPDRLTGSGSGTDFTLTISSLQAEDVAVYYCQQYYAYPYTFGQGTKLEIKR was 5.17e-05
